Reported Foam height at time t = 5 by item:
- protocol summary: Foam height test, Standard Test Method for Foaming Properties of Surface-Active Agents (ASTM 1173-07)
- Assay type: physicochemical
- applied conditions: 1 g/L (0.1 weight %), t = 5 min, 49° C.
measured parameter: Foam height at time t = 5 (mm)

>>> print(df.to_string())
                                   compound  reported_value
0  CCCCCCCCCCCCOC(=O)CCC[N+](C)(C)CCCS(=O)(=O)[O-]             146
1  CCCCCCCCCCCCOC(=O)CCC[N+](C)(C)CC(O)CS(=O)(=O)[O-] (stereo not drawn)             127
2  CCCCCCCCCCCCOC(=O)CCCC[N+](C)(C)CC(O)CS(=O)(=O)[O-] (stereo not drawn)             170
3  CCCCCCCCCCCCNC(=O)CCC[N+](C)(C)CCCS(=O)(=O)[O-]              75
4  CCCCCCCCCCCCNC(=O)CCC[N+](C)(C)CC(O)CS(=O)(=O)[O-] (stereo not drawn)             150
5  CCCCCCCCCCCCNC(=O)CCCC[N+](C)(C)CC(O)CS(=O)(=O)[O-] (stereo not drawn)             147
